Measured values drawn from paper PMC11855866 for this set.

Test: Hemolysis (Drabkin's method)
Assay type: cell-based
Details: human, washed erythrocyte (RBC) suspension, 40% hematocrit, pH 7.4, single drug, RT, dark, CTRL− 11.6%
Below, each entry is listed with its recorded hemolysis at 4 h.

{"MOLECULE": "CCC1=C(C)CN(C(=O)NCCc2ccc(S(=O)(=O)NC(=O)N[C@H]3CC[C@H](C)CC3)cc2)C1=O [GLIM, Glimepiride]", "hemolysis at 4 h": "11.2 to 11.9%"}
{"MOLECULE": "COc1ccc2c(c1)C(=O)N(CCc1ccc(S(=O)(=O)NC(=O)NC3CCCCC3)cc1)C(=O)C2(C)C", "hemolysis at 4 h": "11.2 to 11.9%"}
{"MOLECULE": "CCCNC(=O)NS(=O)(=O)c1ccc(Cl)cc1 [CHLO, Chlorpropamide]", "hemolysis at 4 h": "11.2 to 11.9%"}
{"MOLECULE": "COc1cccc2c1C(=O)c1c(O)c3c(c(O)c1C2=O)C[C@@](O)(C(=O)CO)C[C@@H]3O[C@H]1C[C@H](N)[C@H](O)[C@H](C)O1", "hemolysis at 4 h": "32.3%"}

* * *

Tested on: HMEC-1 cells
Experiment: MTT cytotoxicity / synergy assay, 72 h, HMEC-1
Conditions: read-out: IC50 Value in Specific Cell Line, HMEC-1; MTT, 72 h; n.d. = IC50 not achieved within concentrations tested

{"COMPOUND_SMILES": "COCCCNC(=O)NS(=O)(=O)c1ccc(C)cc1", "TEST_SYSTEM": "HMEC-1 cells", "RESULT_UNITS": "µM", "IC50": 78.3}

* * *

System: HuH7 cells
Test: MTT cytotoxicity / synergy assay, 72 h, HuH7
Settings: Homo sapiens, Huh-7, 72 h, read-out: IC50 Value in Specific Cell Line, HuH7
pIC50: −log10 of the molar value.
Below, each entry is listed with its recorded pIC50.
VALUE_TYPE: pIC50

{"COMPOUND": "Cc1cnc(C(=O)NCCc2ccc(S(=O)(=O)NC(=O)NC3CCCCC3)cc2)cn1 [GLIP, Glipizide]", "VALUE_TYPE": "pIC50", "RECORDED_VALUE": 3.37}
{"COMPOUND": "COc1cccc2c1C(=O)c1c(O)c3c(c(O)c1C2=O)C[C@@](O)(C(=O)CO)C[C@@H]3O[C@H]1C[C@H](N)[C@H](O)[C@H](C)O1", "VALUE_TYPE": "pIC50", "RECORDED_VALUE": 6.55}
{"COMPOUND": "COc1ccc(Cl)cc1C(=O)NCCc1ccc(S(=O)(=O)NC(=O)NC2CCCCC2)cc1 [GLIB, Glibenclamide]", "VALUE_TYPE": "pIC50", "RECORDED_VALUE": 3.31}
{"COMPOUND": "COc1ccc2c(c1)C(=O)N(CCc1ccc(S(=O)(=O)NC(=O)NC3CCCCC3)cc1)C(=O)C2(C)C", "VALUE_TYPE": "pIC50", "RECORDED_VALUE": 3.40}
{"COMPOUND": "CCC1=C(C)CN(C(=O)NCCc2ccc(S(=O)(=O)NC(=O)N[C@H]3CC[C@H](C)CC3)cc2)C1=O [GLIM, Glimepiride]", "VALUE_TYPE": "pIC50", "RECORDED_VALUE": 3.32}

* * *

Assay: MTT cytotoxicity, range over the cell panel
Format: cell-based
Conditions: human; range over the tested cell lines; read-out: cytotoxicity (IC50 range over cell lines), our study
VALUE_TYPE: IC50 at 72 h

{"COMPOUND": "CCC1=C(C)CN(C(=O)NCCc2ccc(S(=O)(=O)NC(=O)N[C@H]3CC[C@H](C)CC3)cc2)C1=O [GLIM, Glimepiride]", "RECORDED_VALUE": "135 to 473 µM"}
